systemName: GST-Nv-NF-kB (Ser allele) (Nematostella vectensis, UniProt A7UNT2 2-411)
Sequence: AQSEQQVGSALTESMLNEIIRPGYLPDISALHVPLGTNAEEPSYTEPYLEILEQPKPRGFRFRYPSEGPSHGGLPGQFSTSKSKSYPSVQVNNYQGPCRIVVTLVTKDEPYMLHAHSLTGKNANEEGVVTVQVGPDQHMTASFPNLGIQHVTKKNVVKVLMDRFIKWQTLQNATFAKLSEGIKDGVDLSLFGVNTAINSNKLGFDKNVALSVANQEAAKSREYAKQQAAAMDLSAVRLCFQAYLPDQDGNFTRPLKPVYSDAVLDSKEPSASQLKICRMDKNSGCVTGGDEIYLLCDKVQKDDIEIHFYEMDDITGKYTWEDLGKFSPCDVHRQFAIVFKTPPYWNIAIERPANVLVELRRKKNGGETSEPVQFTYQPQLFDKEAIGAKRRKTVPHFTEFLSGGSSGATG
methodSummary: protein-binding microarray (PBM); PBM: ~300 nM protein, 6 mM HEPES pH 7.8, 80 mM KCl, 0.5 mM EDTA, 0.5 mM EGTA, 6% glycerol, 35 ng/ul poly-dIdC, 1% milk, 1 h, room temperature; Ap Aiptasia and Nv Nematostella (sea anemones) / Co Capsaspora / Aq Amphimedon (sponge) / Dm Drosophila / Hu human; RHD is the Rel homology domain; high values mean tight binding
conditionLabel: dsDNA, one strand shown
Here the recorded binding signal is given for each entry.
Lab book: enter the figure in z-score, no units written.

chainSequence | binding signal (z-score)
CCGATTAACATCAAAAATTCACCTGATGTTAATCGGGTCTTGATTCGCTTGACGCTGCTG | 3.83
CCGATTAACATCAGGGAATTAACTGATGTTAATCGGGTCTTGATTCGCTTGACGCTGCTG | 3.91
CCGATTAACATCAAGGAAAAACCTGATGTTAATCGGGTCTTGATTCGCTTGACGCTGCTG | 1.47
CCGATTAACATCAGGGAATACCATGATGTTAATCGGGTCTTGATTCGCTTGACGCTGCTG | 2.61
CCGATTAACATCATACTTCCCCATGATGTTAATCGGGTCTTGATTCGCTTGACGCTGCTG | 6.52

IN: Indicate the recorded binding signal value for this sequence: "CCGATTAACATCAAAACACCCCCTGATGTTAATCGGGTCTTGATTCGCTTGACGCTGCTG"
OUT: 5.6

IN: Assign binding signal to the following record: "CCGATTAACATCAGAAACTTCCCTGATGTTAATCGGGTCTTGATTCGCTTGACGCTGCTG"
OUT: 4.61

IN: Please report the measured binding signal for "CCGATTAACATCAAAAAAATACCTGATGTTAATCGGGTCTTGATTCGCTTGACGCTGCTG"
OUT: 4.89

IN: Give a short answer stating reported binding signal for "CCGATTAACATCACGGGTTTCCCTGATGTTAATCGGGTCTTGATTCGCTTGACGCTGCTG" .
OUT: 4.88
